experiment: soluble on expression in E. coli; label from the status in PepcDB or PDB records

# sequence entry, soluble on expression in E. coli
records = [
    ("MAHHHHHHMLAAIQGFGTRVAARTAGQALRRGLGVVPLRRCCPFRCASSASLPSDVEVHQGSDDYRHSDDAFTLSTEVLGTAEEKATLDEDEFDELEAASQELHDLCYALIAHLRCADPEANKALFERRVQRAFREPKPEQYRRLLHGHGDRSLRRRNNYRTRKDFQEAHRLYLQWCDKLLLLLTQPVLDRLVKSAGKGHRDLRTDGVHRYRRPLERATWRSFPHRWFKHAPFEVQQLRADIPESAVLNTRFYRDHATLRYLFTLMEPQHAFREKIERRVMDLTQRYDPLRKSIE", "not soluble"),
    ("MGRFHRHDDGTVHSHDHDHHGHSHDVGDHSGYETGRERIEVLEDIFHENDHCAADNKELFDAHQVRCINIMSSPGAGKTTVLQHVLRAAEGKVRVGVVEGDIETSLDADRLTGFGAQISLLNTGNGFGGECHLDAPMVSRALRGLDLDTLDVVLIENVGNLVCPAEFEVGEHSKAMIYSVTEGEDKPLKYPVMFRSVDAVVINKIDLLPYLDFDMELFMKNLRQVNPDAKVFEVSAKTGEGLDGWIEWLVGAK", "not soluble"),
]
